test: chemical genetic growth profiling, strain panel (AID 1159580);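 note: tested at 20 µM; growth read once vehicle control cultures reached saturation at 30 °C; 1 = growth at the plate median or of vehicle wells; lower values mean less growth of the strain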; details: S. cerevisiae deletion strains, growth OD, locus YMR231W, strain pep5, stronger effect = lower value
Screen size: about 5,500 compounds; about 2,000 (36%) were called active. Not shown: some 18% with an inconclusive outcome. The list shows a part of the results.
Listing of entries alongside the reported normalized growth.
When you answer, write just the number.

Some compounds with known normalized growth results, for comparison:
COc1ccc(OC)c(C(O)C(C)N)c1 (stereo unspecified) ... 0.99
COc1ccc2cc([C@H](C)CO)ccc2c1 ... 1.01
CCOC(=O)C(=O)C1(C(=O)OCC)Oc2cc(OC)cc(OC)c2C(=O)C1c1ccccc1 (stereo unspecified) ... 0.988
CC1CC2C3CCC4=CC(=O)C=C[C@]4(C)[C@@]3(F)[C@@H](O)C[C@]2(C)[C@@]1(O)C(=O)CO (stereo partly specified) ... 0.987
CC(C(=O)O)c1ccc(-c2ccccc2)c(F)c1 (stereo unspecified) ... 0.969

Pending compound:
Prompt: Quick check: normalized growth of CC(Oc1ccccc1)C(=O)N[C@@H]1C(=O)N2[C@@H]1SC(C)(C)[C@@H]2C(=O)O (stereo partly specified) ?
Response: 1

The values you see were collected from PubChem BioAssay AID1159580.
